subject_of_test: hFXR (Homo sapiens (Human))
protocol_details: In Vitro FXR Assay (TK), luciferase reporter in transfected CV-1 cells
run_parameters: TK-ECRE-luc reporter, hFXR/hRXR, 18 hrs, maximum efficacy <25% of Fexaramine control classified as '+'
Experimental: CV-1 cells were seeded at a density of 2,000,000 cells in a T175 flask with DMEM+10% charcoal double-stripped FBS and incubated at 37° C. in 5% CO2 for 18 h (O/N). After 18 h of incubation, the medium in the T175 flask was changed with fresh DMEM+10% charcoal super-stripped serum. […] Compounds were serially diluted in DMSO and added to transfected CV-1 cells. […] The next day cells were lysed and examined for luminescence.
quantity_measured: EC50

compound: COC(=O)c1ccc2c(N(Cc3ccc(-c4ccc(OC)c(C)c4)cc3)C(=O)CCCO)nccc2c1 [Compound 85]
quantity_measured: EC50
reported_result: ≥ 10000 nM
--
compound: COC(=O)c1ccc2c(N(Cc3ccc(-c4ccc(C#N)c(C)c4)cc3)C(=O)CC(C)(C)C)nccc2c1 [Compound 42]
quantity_measured: EC50
reported_result: ≤ 1000 nM
--
compound: COC(=O)c1ccc2c(N(Cc3ccc(-c4ccc5c(c4)OC(F)(F)O5)cc3)C(=O)CC(C)(C)C)nccc2c1 [Compound 34]
quantity_measured: EC50
reported_result: ≤ 1000 nM
--
compound: COC(=O)c1ccc2c(N(C[C@H]3CC[C@H](c4cccc(C)c4)CC3)C(=O)CC(C)(C)C)nccc2c1 [Compound 90]
quantity_measured: EC50
reported_result: ≤ 1000 nM
--
compound: COC(=O)c1ccc2c(N(Cc3ccc(-c4ccc(C#N)c(Cl)c4)cc3)C(=O)CC(C)(C)C)nccc2c1 [Compound 31]
quantity_measured: EC50
reported_result: ≤ 1000 nM

Input COC(=O)c1ccc2c(N(Cc3ccc(-c4ccc(OC)c(C)c4)cc3)C(C)=O)nccc2c1 [Compound 27] . Output EC50: ≥ 10000 nM

The measured EC50 associated with COC(=O)c1ccc2ccc(N(Cc3ccc(-c4ccc(N(C)C)cc4)cc3)C(=O)C3CCCCC3)cc2c1 [Compound 15] reads ≥ 10000 nM

Measured EC50 of COC(=O)/C=C/c1ccnc(N(Cc2ccc(-c3ccc(N(C)C)cc3)cc2)C(=O)C2CCOCC2)c1 [Compound 4] : 1000 to 10000 nM

* * *

Entries and their EC50
subject_of_test: UniProtKB Q96RI1
protocol_details: In Vitro FXR Assay (TK), luciferase reporter in transfected CV-1 cells
run_parameters: TK-ECRE-luc reporter, hFXR/hRXR, 18 hrs, maximum efficacy <25% of Fexaramine control classified as '+'

As a guide, the following entries are already answered.
compound_structure: COC(=O)/C=C/c1ccc2c(N(Cc3ccc(-c4ccc(OC)c(C)c4)cc3)C(=O)CC(C)(C)C)nccc2c1
reported_result: 1000 to 10000 nM
--
compound_structure: COC(=O)c1ccc2c(N(Cc3ccc(-c4ccc(N(C)C)cc4)cc3)C(=O)C3CCCCC3)nccc2c1
reported_result: ≤ 1000 nM
--
compound_structure: COC(=O)c1ccc2c(N(Cc3ccc(-c4cnc(OC)c(F)c4)cc3)C(=O)CC(C)(C)C)nccc2c1
reported_result: ≤ 1000 nM
--
compound_structure: COC(=O)c1ccc2c(N(Cc3ccc(-c4ccc(CO)cc4)cc3)C(=O)CC(C)(C)C)nccc2c1
reported_result: 1000 to 10000 nM
--
compound_structure: COC(=O)c1ccc2c(N(Cc3ccc(-c4ccc(CCO)cc4)cc3)C(=O)CC(C)(C)C)nccc2c1
reported_result: ≤ 1000 nM
--
compound_structure: COC(=O)c1ccc2c(N(Cc3ccc(-c4cnc(OC)c(Cl)c4)cc3)C(=O)CC(C)(C)C)nccc2c1
reported_result: ≤ 1000 nM

Then there is this compound:
`COC(=O)c1ccc2c(N(Cc3ccc(-c4ccc(OC)c(C)c4)c(C#N)c3)C(=O)CC(C)(C)C)nccc2c1` yielded EC50 of ≤ 1000 nM

* * *

subject_of_test: hFXR (Homo sapiens (Human), UniProt Q96RI1)
Sequence (Q96RI1 whole entry): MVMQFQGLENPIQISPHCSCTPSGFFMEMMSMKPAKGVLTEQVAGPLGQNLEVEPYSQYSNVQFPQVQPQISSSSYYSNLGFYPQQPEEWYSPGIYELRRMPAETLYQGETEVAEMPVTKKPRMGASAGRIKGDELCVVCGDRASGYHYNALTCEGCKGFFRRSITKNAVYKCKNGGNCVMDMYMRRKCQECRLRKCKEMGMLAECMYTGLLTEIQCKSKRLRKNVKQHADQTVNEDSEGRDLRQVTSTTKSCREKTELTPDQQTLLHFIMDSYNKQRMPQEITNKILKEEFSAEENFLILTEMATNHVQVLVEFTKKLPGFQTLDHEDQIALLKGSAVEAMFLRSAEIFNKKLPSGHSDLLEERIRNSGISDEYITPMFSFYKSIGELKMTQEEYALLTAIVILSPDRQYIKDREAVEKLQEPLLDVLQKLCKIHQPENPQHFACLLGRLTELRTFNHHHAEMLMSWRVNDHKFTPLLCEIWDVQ
Sequence (P19793 whole entry partner): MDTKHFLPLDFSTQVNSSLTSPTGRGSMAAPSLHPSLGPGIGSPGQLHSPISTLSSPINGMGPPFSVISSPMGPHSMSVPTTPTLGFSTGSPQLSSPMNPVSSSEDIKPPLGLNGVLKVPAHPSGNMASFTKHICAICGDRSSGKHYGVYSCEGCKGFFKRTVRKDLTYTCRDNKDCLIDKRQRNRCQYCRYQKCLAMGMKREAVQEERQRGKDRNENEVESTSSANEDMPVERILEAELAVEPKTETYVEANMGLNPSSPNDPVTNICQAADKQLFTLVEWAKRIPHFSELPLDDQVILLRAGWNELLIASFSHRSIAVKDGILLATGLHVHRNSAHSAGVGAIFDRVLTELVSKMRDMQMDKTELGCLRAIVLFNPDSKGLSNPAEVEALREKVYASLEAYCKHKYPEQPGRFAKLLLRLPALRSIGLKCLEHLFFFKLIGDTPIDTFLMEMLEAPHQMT
protocol_details: In Vitro FXR Assay (TK), luciferase reporter in transfected CV-1 cells
run_parameters: TK-ECRE-luc reporter, hFXR/hRXR, 18 hrs, maximum efficacy <25% of Fexaramine control classified as '+'
Description: CV-1 cells were seeded at a density of 2,000,000 cells in a T175 flask with DMEM+10% charcoal double-stripped FBS and incubated at 37° C. in 5% CO2 for 18 h (O/N). After 18 h of incubation, the medium in the T175 flask was changed with fresh DMEM+10% charcoal super-stripped serum. […] Compounds were serially diluted in DMSO and added to transfected CV-1 cells. […] The next day cells were lysed and examined for luminescence.
quantity_measured: EC50

Measured EC50, `COC(=O)c1ccc2c(N(Cc3ccc(-c4ccc(OC)c(C)c4)cc3)C(=O)CC(C)C)nccc2c1` : ≤ 1 µM

Summary for this compound, `COC(=O)c1ccc2c(N(Cc3ccc(-c4ccc(OC)c(C)c4)cc3)C(=O)CCc3ccccc3)nccc2c1` : EC50 is 1 to 10 µM

So for `COC(=O)c1ccc2c(N(Cc3ccc(-c4ccc(OC)c(C)c4)cc3)C(=O)C3CCCCCC3)nccc2c1` , the logged EC50 turned out to be ≤ 1 µM

Recorded EC50 (compound `COC(=O)c1ccc2c(N(Cc3ccc(-c4ccc(OC(F)F)cc4)cc3)C(=O)CC(C)(C)C)nccc2c1` ): 1 to 10 µM

* * *

subject_of_test: hFXR (Homo sapiens (Human), UniProt Q96RI1)
protocol_details: In Vitro FXR Assay (TK), luciferase reporter in transfected CV-1 cells
run_parameters: TK-ECRE-luc reporter, hFXR/hRXR, 18 hrs, maximum efficacy <25% of Fexaramine control classified as '+'
pEC50: −log10 of the molar value.
Each entry below lists one item and its recorded pEC50 value.

Solved cases below.
molecule: COC(=O)c1ccc2c(N(Cc3ccc(-c4ccc5c(c4)OCC5)cc3)C(=O)CC(C)(C)C)nccc2c1 [Compound 47]
subject_of_test: hFXR (Homo sapiens (Human), UniProt Q96RI1)
pEC50: ≥ 6.00
//
molecule: COc1ccc([C@H]2CC[C@H](CN(C(=O)CC(C)(C)C)c3nccc4cc(C(=O)O)ccc34)CC2)cc1C [Compound 100]
subject_of_test: hFXR (Homo sapiens (Human), UniProt Q96RI1)
pEC50: 5.00 to 6.00
//
molecule: COC(=O)c1ccc2c(N(Cc3ccc(-c4ccc(C5CC5)cc4)cc3)C(=O)CC(C)(C)C)nccc2c1 [Compound 40]
subject_of_test: hFXR (Homo sapiens (Human), UniProt Q96RI1)
pEC50: ≥ 6.00

Now consider the entry below.
Entry COC(=O)/C=C/c1ccnc(N(Cc2ccc(-c3ccc(N(C)C)cc3)cc2)C(=O)C2CCCCC2)c1 [Compound 1] — recorded pEC50 = ≥ 6.00

* * *

subject_of_test: hFXR (Homo sapiens (Human), UniProt Q96RI1)
protocol_details: In Vitro FXR Assay (TK), luciferase reporter in transfected CV-1 cells
run_parameters: TK-ECRE-luc reporter, hFXR/hRXR, 18 hrs, maximum efficacy <25% of Fexaramine control classified as '+'
quantity_measured: EC50

Worked cases, answers included:
compound: COc1ccc(-c2ccc(CN(C(=O)CC(C)(C)C)c3nccc4cc(CCC(=O)O)ccc34)cc2)cc1C [Compound 104]
subject_of_test: hFXR (Homo sapiens (Human), UniProt Q96RI1)
reported_result: 1000 to 10000 nM
--
compound: COc1ccc([C@H]2CC[C@H](CN(C(=O)CC(C)(C)C)c3nccc4cc(C(=O)OC(C)C)ccc34)CC2)cc1C [Compound 87]
subject_of_test: hFXR (Homo sapiens (Human), UniProt Q96RI1)
reported_result: ≤ 1000 nM

# EC50 (compound: COC(=O)c1ccc2c(N(C[C@H]3CC[C@H](c4ccccc4C)CC3)C(=O)CC(C)(C)C)nccc2c1 [Compound 89] ) is 1000 to 10000 nM

What the record says about COC(=O)c1ccc2c(N(Cc3ccc(-c4ccc(OC(F)(F)F)c(Cl)c4)cc3)C(=O)CC(C)(C)C)nccc2c1 [Compound 41] : EC50 is ≤ 1000 nM

* * *

subject_of_test: hFXR (Homo sapiens (Human))
protocol_details: In Vitro FXR Assay (TK), luciferase reporter in transfected CV-1 cells
run_parameters: TK-ECRE-luc reporter, hFXR/hRXR, 18 hrs, maximum efficacy <25% of Fexaramine control classified as '+'
pEC50: −log10 of the molar value.
quantity_measured: pEC50

Known results for compounds:
compound_structure: COC(=O)c1ccc2c(N(Cc3ccc(-c4ccc(OC)c(C)c4)cc3)C(=O)CCO)nccc2c1
reported_result: ≤ 5.00

compound_structure: COC(=O)c1ccc2c(N(Cc3ccc(-c4ccc(C)nc4)cc3)C(=O)CC(C)(C)C)nccc2c1
reported_result: 5.00 to 6.00

compound_structure: COC(=O)c1ccc2c(N(Cc3ccc(-c4ccc5c(c4)CCN5)cc3)C(=O)CC(C)(C)C)nccc2c1
reported_result: ≥ 6.00

The reported value for `COC(=O)c1ccc2c(N(Cc3ccc(-c4ccc5c(c4)CCN5C)cc3)C(=O)CC(C)(C)C)nccc2c1` in terms of pEC50 is ≥ 6.00

Just for reference, patent US10377717B2 is where these values come from.
